assay: Stability of flavonoids and biotransformation products in mouse plasma under different handling conditions; type: in vitro ADME, mice; details: storage stability; high nominal conc. (7.00; 44.37; 4.50; 31.25 µg/mL); n = 6
The label is Fulfilled for Observed Conc. Long-term (−70 °C; 1 month) below 30 µg/mL and Not fulfilled for Observed Conc. Long-term (−70 °C; 1 month) equal to or exceeding 30 µg/mL.

# compound, assigned_label
measured = [
    ("C[C@@H]1O[C@@H](OC[C@H]2O[C@@H](Oc3c(-c4ccc(O)c(O)c4)oc4cc(O)cc(O)c4c3=O)[C@H](O)[C@@H](O)[C@@H]2O)[C@H](O)[C@H](O)[C@H]1O", "Fulfilled"),
    ("O=C(/C=C/c1ccc(O)cc1)OC[C@H]1O[C@@H](Oc2c(-c3ccc(O)cc3)oc3cc(O)cc(O)c3c2=O)[C@H](O)[C@@H](O)[C@@H]1O [Tiliroside, tiliroside]", "Not fulfilled"),
    ("O=C(O)Cc1ccc(O)c(O)c1 [DOPAC, 3,4-dihydroxyphenylacetic acid]", "Not fulfilled"),
    ("O=c1c(O)c(-c2ccc(O)cc2)oc2cc(O)cc(O)c12", "Fulfilled"),
    ("O=c1c(O[C@@H]2O[C@H](CO)[C@@H](O)[C@H](O)[C@H]2O)c(-c2ccc(O)c(O)c2)oc2cc(O)cc(O)c12 [Quercetin glucoside, quercetin glucoside]", "Not fulfilled"),
    ("O=C(O)Cc1cccc(O)c1 [m-HPAA, meta-hydroxyphenylacetic acid]", "Not fulfilled"),
    ("C[C@@H]1O[C@@H](Oc2c(-c3ccc(O)c(O)c3)oc3cc(O)cc(O)c3c2=O)[C@H](O)[C@H](O)[C@H]1O", "Not fulfilled"),
    ("O=C(O)Cc1ccc(O)cc1 [p-HPAA, para-hydroxyphenylacetic acid]", "Not fulfilled"),
]

---

assay: Stability of flavonoids and biotransformation products in mouse plasma under different handling conditions; assay type: in vitro ADME, mice; conditions: storage stability; high nominal conc. (7.00; 44.37; 4.50; 31.25 µg/mL); n = 6

# compound, Observed Conc. Autosampler (4 °C; 8 h), µg/mL
measured = [
    ("C[C@@H]1O[C@@H](OC[C@H]2O[C@@H](Oc3c(-c4ccc(O)c(O)c4)oc4cc(O)cc(O)c4c3=O)[C@H](O)[C@@H](O)[C@@H]2O)[C@H](O)[C@H](O)[C@H]1O", 7.08),
    ("O=C(O)Cc1ccc(O)cc1 [p-HPAA, para-hydroxyphenylacetic acid]", 31.64),
    ("O=C(/C=C/c1ccc(O)cc1)OC[C@H]1O[C@@H](Oc2c(-c3ccc(O)cc3)oc3cc(O)cc(O)c3c2=O)[C@H](O)[C@@H](O)[C@@H]1O [Tiliroside, tiliroside]", 42.74),
    ("O=C(O)Cc1cccc(O)c1 [m-HPAA, meta-hydroxyphenylacetic acid]", 31.34),
    ("O=C(O)Cc1ccc(O)c(O)c1 [DOPAC, 3,4-dihydroxyphenylacetic acid]", 31.61),
    ("O=c1c(O[C@@H]2O[C@H](CO)[C@@H](O)[C@H](O)[C@H]2O)c(-c2ccc(O)c(O)c2)oc2cc(O)cc(O)c12 [Quercetin glucoside, quercetin glucoside]", 43.30),
    ("O=c1c(O)c(-c2ccc(O)cc2)oc2cc(O)cc(O)c12", 4.19),
    ("C[C@@H]1O[C@@H](Oc2c(-c3ccc(O)c(O)c3)oc3cc(O)cc(O)c3c2=O)[C@H](O)[C@H](O)[C@H]1O", 44.44),
]

---

assay: Plasma concentration after a single oral dose of the anxiolytic fraction (HPLC); assay type: in vivo, ICR mice; conditions: mouse, plasma; 15 min after single oral dose of 200 mg/kg of the anxiolytic fraction; ICR mice, n = 10
This section presents molecules with their documented concentration at 15 min values.

# molecule, concentration at 15 min
records = [
    ("O=C(O)Cc1ccc(O)c(O)c1 [DOPAC, 3,4-dihydroxyphenylacetic acid]", "7.73 µg/mL"),
    ("O=C(O)Cc1ccc(O)cc1 [p-HPAA, para-hydroxyphenylacetic acid]", "6.01 µg/mL"),
    ("O=C(O)Cc1cccc(O)c1 [m-HPAA, meta-hydroxyphenylacetic acid]", "4.75 µg/mL"),
]

---

experiment: Stability of flavonoids and biotransformation products in mouse plasma under different handling conditions; assay type: in vitro ADME, mice; conditions: storage stability; low nominal conc. (1.75; 11.02; 1.12; 1.95 µg/mL); n = 6
The label is satisfied for Observed Conc. Long-term (−70 °C; 1 month) below 10 µg/mL and not satisfied for Observed Conc. Long-term (−70 °C; 1 month) equal to or exceeding 10 µg/mL.

# compound, assigned_label
data = [
    ("O=C(/C=C/c1ccc(O)cc1)OC[C@H]1O[C@@H](Oc2c(-c3ccc(O)cc3)oc3cc(O)cc(O)c3c2=O)[C@H](O)[C@@H](O)[C@@H]1O [Tiliroside, tiliroside]", "not satisfied"),
    ("C[C@@H]1O[C@@H](OC[C@H]2O[C@@H](Oc3c(-c4ccc(O)c(O)c4)oc4cc(O)cc(O)c4c3=O)[C@H](O)[C@@H](O)[C@@H]2O)[C@H](O)[C@H](O)[C@H]1O", "satisfied"),
    ("C[C@@H]1O[C@@H](Oc2c(-c3ccc(O)c(O)c3)oc3cc(O)cc(O)c3c2=O)[C@H](O)[C@H](O)[C@H]1O", "not satisfied"),
    ("O=C(O)Cc1ccc(O)cc1 [p-HPAA, para-hydroxyphenylacetic acid]", "satisfied"),
    ("O=C(O)Cc1cccc(O)c1 [m-HPAA, meta-hydroxyphenylacetic acid]", "satisfied"),
    ("O=c1c(O)c(-c2ccc(O)cc2)oc2cc(O)cc(O)c12", "satisfied"),
    ("O=c1c(O[C@@H]2O[C@H](CO)[C@@H](O)[C@H](O)[C@H]2O)c(-c2ccc(O)c(O)c2)oc2cc(O)cc(O)c12 [Quercetin glucoside, quercetin glucoside]", "not satisfied"),
    ("O=C(O)Cc1ccc(O)c(O)c1 [DOPAC, 3,4-dihydroxyphenylacetic acid]", "satisfied"),
]

---

This section presents molecules with their documented Accuracy Bias 0 h values.
assay: Stability of flavonoids and biotransformation products in mouse plasma under different handling conditions; assay type: in vitro ADME, mice; settings: room temperature (25 °C), 0 h; low nominal conc.

# molecule, unit_of_measurement, Accuracy Bias 0 h
rows = [
    ("O=C(O)Cc1ccc(O)c(O)c1 [DOPAC, 3,4-dihydroxyphenylacetic acid]", "%", 0.02),
    ("O=C(/C=C/c1ccc(O)cc1)OC[C@H]1O[C@@H](Oc2c(-c3ccc(O)cc3)oc3cc(O)cc(O)c3c2=O)[C@H](O)[C@@H](O)[C@@H]1O [Tiliroside, tiliroside]", "%", 4.59),
    ("O=C(O)Cc1cccc(O)c1 [m-HPAA, meta-hydroxyphenylacetic acid]", "%", 0.47),
    ("O=c1c(O[C@@H]2O[C@H](CO)[C@@H](O)[C@H](O)[C@H]2O)c(-c2ccc(O)c(O)c2)oc2cc(O)cc(O)c12 [Quercetin glucoside, quercetin glucoside]", "%", "−1.24"),
    ("O=c1c(O)c(-c2ccc(O)cc2)oc2cc(O)cc(O)c12 [Kaempferol, kaempferol]", "%", "−3.29"),
]

---

This section presents molecules with their documented Observed Conc. 0 h values.
experiment: Stability of flavonoids and biotransformation products in mouse plasma under different handling conditions; assay type: in vitro ADME, mice; settings: room temperature (25 °C), 0 h; high nominal conc. (rutin 7.00; quercetin glucoside, quercitrin, tiliroside 44.37; kaempferol 4.50; m-HPAA, p-HPAA, DOPAC 31.25 µg/mL); n = 6
quantity_measured: Observed Conc. 0 h (µg/mL)

# molecule, unit_of_measurement, result
rows = [
    ("O=C(O)Cc1ccc(O)c(O)c1 [DOPAC, 3,4-dihydroxyphenylacetic acid]", "µg/mL", 31.61),
    ("O=C(O)Cc1cccc(O)c1 [m-HPAA, meta-hydroxyphenylacetic acid]", "µg/mL", 31.40),
    ("O=c1c(O[C@@H]2O[C@H](CO)[C@@H](O)[C@H](O)[C@H]2O)c(-c2ccc(O)c(O)c2)oc2cc(O)cc(O)c12 [Quercetin glucoside, quercetin glucoside]", "µg/mL", 43.10),
    ("C[C@@H]1O[C@@H](Oc2c(-c3ccc(O)c(O)c3)oc3cc(O)cc(O)c3c2=O)[C@H](O)[C@H](O)[C@H]1O", "µg/mL", 44.12),
    ("O=C(/C=C/c1ccc(O)cc1)OC[C@H]1O[C@@H](Oc2c(-c3ccc(O)cc3)oc3cc(O)cc(O)c3c2=O)[C@H](O)[C@@H](O)[C@@H]1O [Tiliroside, tiliroside]", "µg/mL", 43.77),
    ("O=C(O)Cc1ccc(O)cc1 [p-HPAA, para-hydroxyphenylacetic acid]", "µg/mL", 31.76),
    ("C[C@@H]1O[C@@H](OC[C@H]2O[C@@H](Oc3c(-c4ccc(O)c(O)c4)oc4cc(O)cc(O)c4c3=O)[C@H](O)[C@@H](O)[C@@H]2O)[C@H](O)[C@H](O)[C@H]1O", "µg/mL", 7.27),
    ("O=c1c(O)c(-c2ccc(O)cc2)oc2cc(O)cc(O)c12", "µg/mL", 4.45),
]

Source: paper PMC6152131
